Source listed as patent US7402698B2.

Exercise: for every item that follows, state its recorded inhibition at 1 µM.
assay-target: human hNET (Homo sapiens, UniProt P23975)
Construct: expressed in transfected cells; host or cells: MDCK-Net6 (MDCK cells stably transfected with hNET)
Sequence (P23975 whole entry): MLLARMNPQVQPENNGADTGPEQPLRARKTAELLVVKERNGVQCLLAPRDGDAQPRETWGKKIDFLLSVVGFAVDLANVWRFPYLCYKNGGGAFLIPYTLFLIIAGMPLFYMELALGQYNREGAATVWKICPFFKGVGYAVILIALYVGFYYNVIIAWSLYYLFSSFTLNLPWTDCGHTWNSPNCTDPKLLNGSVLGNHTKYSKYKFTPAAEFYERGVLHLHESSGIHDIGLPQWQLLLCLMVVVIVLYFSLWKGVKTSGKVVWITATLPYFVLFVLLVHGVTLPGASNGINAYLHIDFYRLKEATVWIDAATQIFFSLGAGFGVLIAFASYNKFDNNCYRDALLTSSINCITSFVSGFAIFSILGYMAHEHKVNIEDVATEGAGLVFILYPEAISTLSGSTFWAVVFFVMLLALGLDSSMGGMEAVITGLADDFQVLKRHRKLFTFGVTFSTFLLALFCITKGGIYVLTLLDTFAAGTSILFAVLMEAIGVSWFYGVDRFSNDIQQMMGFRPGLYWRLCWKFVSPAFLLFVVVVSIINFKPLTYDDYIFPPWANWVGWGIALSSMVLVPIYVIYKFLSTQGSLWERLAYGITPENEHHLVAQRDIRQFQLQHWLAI
method-description: Norepinephrine (NE) uptake assay in MDCK-Net6 cells
Assay type: cell-based
measurement-context: 1 μM test compound, [3H]NE uptake
Where a name gives a salt, the structure may show the parent alone.
Numbers only, in %.

Sample answers from the record:
{"compound": "OC1(C(CNC2CCCCC2)c2cccc(Br)c2)CCCCC1 (centres unmarked) [Example 48, hydrochloride]", "value-unit": "%", "measured": 40}
{"compound": "OC1(C(CN2CCNCC2)c2cccc(Cl)c2)CCCCC1 (centres unmarked) [Example 1, dihydrochloride]", "value-unit": "%", "measured": 93}
{"compound": "OC1(C(CN2CCCC2)c2cccc(Cl)c2)CCCCC1 (centres unmarked) [Example 34, hydrochloride]", "value-unit": "%", "measured": 65}
{"compound": "OC1(C(CN2CCOCC2)c2cccc(Cl)c2)CCCCC1 (centres unmarked) [Example 57, hydrochloride]", "value-unit": "%", "measured": 35}
{"compound": "OC1(C(CNCc2ccccc2)c2ccc3ccccc3c2)CCC1 (centres unmarked) [Example 12, hydrochloride]", "value-unit": "%", "measured": 90}

Dear colleague, could you please provide inhibition at 1 µM for the compounds listed below?
1. OC1(C(CN2CCOCC2)c2ccc(Cl)c(Cl)c2)CCC1 (centres unmarked) [Example 83, hydrochloride]
2. OC1(C(CNC2CCCCC2)c2ccc(Cl)c(Cl)c2)CCCCC1 (centres unmarked) [Example 42, hydrochloride]

Solution:
1: 19; 2: 48

====

assay-target: human hNET (Homo sapiens, UniProt P23975)
Construct: expressed in transfected cells; host or cells: MDCK-Net6 (MDCK cells stably transfected with hNET)
method-description: Norepinephrine (NE) uptake assay in MDCK-Net6 cells
Format: cell-based
measurement-context: 30 μM test compound (stated in cell), [3H]NE uptake
Structures can show the parent of a compound that is named as a salt.
assay-metric: inhibition at 30 µM
Answer with the number, then the unit.

Sample answers from the record:
{"compound": "CN1CCC(O)(C(CN2CCOCC2)c2cccc(Br)c2)CC1 (centres unmarked) [Example 116, dihydrochloride]", "inhibition at 30 µM": "6%"}
{"compound": "CN1CCC(O)(C(CN2CCOCC2)c2ccc(Cl)c(Cl)c2)CC1 (centres unmarked) [Example 114, dihydrochloride]", "inhibition at 30 µM": "52%"}
{"compound": "OC1(C(CNCc2ccc(F)cc2)c2cccc(Br)c2)CCCCC1 (centres unmarked) [Example 98, hydrochloride]", "inhibition at 30 µM": "69%"}

Look up inhibition at 30 µM for the entries below, preserving their order.
1. OC1(C(CN2CCOCC2)c2cccc(Br)c2)CCCCC1 (centres unmarked) [Example 99, hydrochloride]
2. OC1(C(CN2CCOCC2)c2cccc(Br)c2)CCC1 (centres unmarked) [Example 95, hydrochloride]
3. OC1(C(CN2CCOCC2)c2ccc(Cl)c(Cl)c2)CCCCC1 (centres unmarked) [Example 112, hydrochloride]
4. OC1(C(CNCc2ccc(F)cc2)c2ccc3ccccc3c2)CCCCC1 (centres unmarked) [Example 113, hydrochloride]
5. OC1(C(CNCc2ccc(C(F)(F)F)cc2)c2cccc(Cl)c2)CCCCC1 (centres unmarked) [Example 105, hydrochloride]

Solution:
55%
67%
80%
55%
99%

====

Give inhibition at 1 µM for every item shown.
assay-target: human hNET (Homo sapiens)
Construct: expressed in transfected cells; host or cells: MDCK-Net6 (MDCK cells stably transfected with hNET)
method-description: Norepinephrine (NE) uptake assay in MDCK-Net6 cells
Assay type: cell-based
measurement-context: 1 μM test compound, [3H]NE uptake
Structures can show the parent of a compound that is named as a salt.
Numbers only, in %.

Known inhibition at 1 µM results, listed for orientation:
{"molecule": "OC1(C(CNCc2ccccc2)c2ccc(Cl)c(Cl)c2)CCC1 (stereo not shown) [Example 10, hydrochloride]", "inhibition at 1 µM (%)": 92}
{"molecule": "OC1(C(CNC2CCCCC2)c2cccc(Cl)c2)CCCCC1 (stereo not shown) [Example 67, hydrochloride]", "inhibition at 1 µM (%)": 26}

Please state, for each entry, its recorded inhibition at 1 µM.
1. OC1(C(CNCc2ccc(C(F)(F)F)cc2)c2cccc(Br)c2)CCCCC1 (stereo not shown) [Example 90, hydrochloride]
2. OC1(C(CNC2CCCc3ccccc32)c2cccc(Br)c2)CCCCC1 (stereo not shown) [Example 55, hydrochloride]
3. OC1(C(CNCc2ccccc2)c2ccc(Cl)c(Cl)c2)CCCCC1 (stereo not shown) [Example 38, hydrochloride]
4. OC1(C(CNCc2ccccc2)c2cccc(Cl)c2)CCCCC1 (stereo not shown) [Example 41, hydrochloride]
5. OC1(C(CNCc2ccccc2)c2ccc3ccccc3c2)CCCCC1 (stereo not shown) [Example 62, hydrochloride]

Solution:
1: 15; 2: 38; 3: 56; 4: 51; 5: 30

====

assay-target: human hNET (Homo sapiens, UniProt P23975)
Construct: expressed in transfected cells; host or cells: MDCK-Net6 (MDCK cells stably transfected with hNET)
method-description: Norepinephrine (NE) uptake assay in MDCK-Net6 cells
Assay type: cell-based
measurement-context: 1 μM test compound, [3H]NE uptake
Structures can show the parent of a compound that is named as a salt.
Label 1.0 for high-side inhibition at 1 µM (at or above 30%) and 0.0 for low-side inhibition at 1 µM (below it).

# count of solved cases: 9
{"molecule": "OC1(C(CNCc2ccccc2)c2cccc(Br)c2)CCC1 (stereo not shown) [Example 40, hydrochloride]", "assay-target": "human hNET (Homo sapiens, UniProt P23975)", "label": 1.0}
{"molecule": "OC1(C(CNCc2cccc(Cl)c2)c2cccc(Br)c2)CCCCC1 (stereo not shown) [Example 60, hydrochloride]", "assay-target": "human hNET (Homo sapiens, UniProt P23975)", "label": 1.0}
{"molecule": "OC1(C(CNCc2ccc(F)cc2)c2cccc(C(F)(F)F)c2)CCCCC1 (stereo not shown) [Example 47, hydrochloride]", "assay-target": "human hNET (Homo sapiens, UniProt P23975)", "label": 1.0}
{"molecule": "OC1(C(CNCc2ccc(C(F)(F)F)cc2)c2ccc(Cl)c(Cl)c2)CCCCC1 (stereo not shown) [Example 75, hydrochloride]", "assay-target": "human hNET (Homo sapiens, UniProt P23975)", "label": 0.0}
{"molecule": "OC1(C(CNCc2ccc(F)cc2)c2ccc(Cl)c(Cl)c2)CCCCC1 (stereo not shown) [Example 80, hydrochloride]", "assay-target": "human hNET (Homo sapiens, UniProt P23975)", "label": 0.0}
{"molecule": "OC1(C(CNCc2ccccc2)c2cccc(Br)c2)CCCCC1 (stereo not shown) [Example 61, hydrochloride]", "assay-target": "human hNET (Homo sapiens, UniProt P23975)", "label": 1.0}
{"molecule": "OC1(C(CNCc2cccc(Cl)c2)c2ccc3ccccc3c2)CCCCC1 (stereo not shown) [Example 33, hydrochloride]", "assay-target": "human hNET (Homo sapiens, UniProt P23975)", "label": 1.0}
{"molecule": "CN1CCC(O)(C(CNCc2ccccc2)c2ccc(Cl)c(Cl)c2)CC1 (stereo not shown) [Example 15, dihydrochloride]", "assay-target": "human hNET (Homo sapiens, UniProt P23975)", "label": 1.0}
{"molecule": "OC1(C(CN2CCCCC2)c2cccc(Cl)c2)CCCCC1 (stereo not shown) [Example 85, hydrochloride]", "assay-target": "human hNET (Homo sapiens, UniProt P23975)", "label": 0.0}

Problem: Does the reported inhibition at 1 µM for CN1CCC(O)(C(CNCc2ccccc2)c2cccc(Br)c2)CC1 (stereo not shown) [Example 44, dihydrochloride] fall at or above the 30% mark?
Solution: 1.0
